molecular target: WDR5 (Homo sapiens (Human), UniProt P61964); test: Surface Plasmon Resonance (SPR) assay, KD and residence time; type: binding; conditions: surface plasmon resonance (SPR) assay; read-out: WDR5 binding affinity (KD)
pKd: −log10 of the molar value.
experimentalReadout: pKd

>  <molecule>
C[C@@H]1CN(c2cc(F)c(-c3cnc(N4CCOCC4)nc3)cc2NC(=O)c2cc(O)cc(C(F)(F)F)c2)C[C@H](C)N1C [Example 280]

>  <systemUnderTest>
WDR5 (Homo sapiens (Human), UniProt P61964)

>  <obsValue>
8.51

$$$$
>  <molecule>
C[C@@H]1CN(c2cc(F)c(-c3cnc(N4CCN(C)CC4)nc3)cc2NC(=O)c2ccc(F)cc2C(F)(F)F)C[C@H](C)N1C [Example 379]

>  <systemUnderTest>
WDR5 (Homo sapiens (Human), UniProt P61964)

>  <obsValue>
9.03

$$$$
>  <molecule>
C[C@@H]1CN(c2cc(F)c(C3=CCNC3)cc2NC(=O)c2c[nH]c(=O)cc2C(F)(F)F)C[C@H](C)N1C [Example 329]

>  <systemUnderTest>
WDR5 (Homo sapiens (Human), UniProt P61964)

>  <obsValue>
8.39

$$$$

---

target: WDR5 (Homo sapiens (Human), UniProt P61964); assay: Surface Plasmon Resonance (SPR) assay, KD and residence time; format: binding; conditions: surface plasmon resonance (SPR) assay; read-out: WDR5 binding affinity (KD)
# Lookup of reported Kd keyed by entry

>  <smilesRecord>
C[C@@H]1CN(c2cc(F)c(-c3ccc(N4CCOCC4)nn3)cc2NC(=O)c2c[nH]c(=O)cc2C(F)(F)F)C[C@H](C)N1C

>  <Kd, nM>
1.53

$$$$
>  <smilesRecord>
C[C@@H]1CN(c2cc(F)c(C3=CCCN(c4ncccn4)C3)cc2NC(=O)c2cn(C)c(=O)cc2C(F)(F)F)C[C@H](C)N1C

>  <Kd, nM>
4.27

$$$$
>  <smilesRecord>
C[C@@H]1CN(c2cc(F)c(-c3cccnc3OC3CCCCC3)cc2NC(=O)c2c[nH]c(=O)cc2C(F)(F)F)C[C@H](C)N1C

>  <Kd, nM>
6.69

$$$$
>  <smilesRecord>
C[C@@H]1CN(c2cc(F)c(C3=CCN(C(=O)OC(C)(C)C)CC3)cc2NC(=O)c2c[nH]c(=O)cc2C(F)(F)F)C[C@H](C)N1C

>  <Kd, nM>
1.24

$$$$

---

molecular target: UniProtKB P61964; test: Surface Plasmon Resonance (SPR) assay, KD and residence time; type: binding; settings: surface plasmon resonance (SPR) assay; read-out: WDR5 binding affinity (KD)
experimentalReadout: Kd (nM)

>  <smilesRecord>
C[C@@H]1CN(c2cc(F)c(-c3cccc(C#N)c3)cc2NC(=O)c2c[nH]c(=O)cc2C(F)(F)F)C[C@H](C)N1C

>  <experimentalReadout>
Kd

>  <unitText>
nM

>  <obsValue>
2.08

$$$$
>  <smilesRecord>
C[C@@H]1CN(c2cc(F)c(-c3ccc(OC4CCOCC4)nc3)cc2NC(=O)c2c[nH]c(=O)cc2C(F)(F)F)C[C@H](C)N1C

>  <experimentalReadout>
Kd

>  <unitText>
nM

>  <obsValue>
0.32

$$$$
>  <smilesRecord>
C[C@@H]1CN(c2ncc(-c3cc(NC(=O)c4c[nH]c(=O)cc4C(F)F)c(N4CCN(C)[C@@H](C)C4)cc3F)cn2)CCO1

>  <experimentalReadout>
Kd

>  <unitText>
nM

>  <obsValue>
0.564

$$$$
>  <smilesRecord>
COc1cc(C#N)c(C(=O)Nc2cc(-c3cnc(N4CCOCC4)nc3)c(F)cc2N2C[C@@H](C)N(C)[C@@H](C)C2)cn1

>  <experimentalReadout>
Kd

>  <unitText>
nM

>  <obsValue>
19.7

$$$$
>  <smilesRecord>
C[C@@H]1CN(c2cc(F)c(-c3cnc(N4CCOCC4)nc3)cc2NC(=O)c2cc(C(F)(F)F)[nH]n2)C[C@H](C)N1C

>  <experimentalReadout>
Kd

>  <unitText>
nM

>  <obsValue>
63.1

$$$$
